The origin of these recorded values is patent US11236069B2.

Below, each of the compounds is paired with its reported IC50 value.
- System: Recombinant human KIF18A (1-467 His-tagged) protein (Homo sapiens (Human), UniProt Q8NI77)
- Sequence (Q8NI77 1-467): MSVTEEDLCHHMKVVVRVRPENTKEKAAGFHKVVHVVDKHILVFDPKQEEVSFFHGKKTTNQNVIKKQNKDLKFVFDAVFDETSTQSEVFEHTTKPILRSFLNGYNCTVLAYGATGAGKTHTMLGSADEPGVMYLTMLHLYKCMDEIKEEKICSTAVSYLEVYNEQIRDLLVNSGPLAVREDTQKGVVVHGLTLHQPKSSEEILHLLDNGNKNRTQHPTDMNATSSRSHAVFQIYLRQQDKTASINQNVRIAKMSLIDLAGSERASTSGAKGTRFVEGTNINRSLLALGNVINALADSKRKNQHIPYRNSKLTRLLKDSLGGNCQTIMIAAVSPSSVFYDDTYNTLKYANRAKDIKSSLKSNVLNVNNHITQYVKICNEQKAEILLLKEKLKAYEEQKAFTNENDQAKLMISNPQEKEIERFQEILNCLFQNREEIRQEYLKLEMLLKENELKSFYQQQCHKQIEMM
- Sequence (P02550 whole entry partner): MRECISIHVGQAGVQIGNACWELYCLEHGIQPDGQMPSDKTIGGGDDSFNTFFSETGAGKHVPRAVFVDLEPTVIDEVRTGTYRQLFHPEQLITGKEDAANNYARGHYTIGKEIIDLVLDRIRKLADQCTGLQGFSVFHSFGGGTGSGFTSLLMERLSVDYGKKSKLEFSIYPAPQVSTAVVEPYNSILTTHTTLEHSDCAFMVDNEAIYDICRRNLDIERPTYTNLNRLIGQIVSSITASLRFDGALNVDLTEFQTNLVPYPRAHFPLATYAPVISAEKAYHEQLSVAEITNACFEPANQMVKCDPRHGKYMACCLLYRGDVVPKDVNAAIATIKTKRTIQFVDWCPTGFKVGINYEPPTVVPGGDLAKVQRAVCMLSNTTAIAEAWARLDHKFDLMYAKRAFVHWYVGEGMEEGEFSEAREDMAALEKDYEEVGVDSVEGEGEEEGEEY
- Sequence (P02554 whole entry partner): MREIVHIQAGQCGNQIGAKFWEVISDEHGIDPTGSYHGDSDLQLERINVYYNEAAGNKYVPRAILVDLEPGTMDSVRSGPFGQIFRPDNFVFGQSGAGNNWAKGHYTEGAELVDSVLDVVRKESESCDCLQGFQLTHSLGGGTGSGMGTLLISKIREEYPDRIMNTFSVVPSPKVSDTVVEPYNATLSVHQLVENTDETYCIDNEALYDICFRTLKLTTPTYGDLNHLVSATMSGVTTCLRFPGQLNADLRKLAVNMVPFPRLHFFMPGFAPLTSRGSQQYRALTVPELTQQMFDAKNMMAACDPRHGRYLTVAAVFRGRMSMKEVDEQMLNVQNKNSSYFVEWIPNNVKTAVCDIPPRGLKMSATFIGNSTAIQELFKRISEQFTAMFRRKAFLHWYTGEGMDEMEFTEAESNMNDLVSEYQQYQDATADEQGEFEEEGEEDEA
- Assay: KIF18A Enzyme Assay: microtubule-stimulated ATPase activity (ADP-Glo)
- Condition Summary: read-out: KIF18A ATPase IC50; 30 nM KIF18A, 30 μg/mL pig microtubules, ATP at Km 75 μM, ADP-Glo luminescence
Give a bare numeral; the unit nM is implied.

Take a look at these entries with their results.
>>> df
                                   compound  measured_result
0  Cc1cc(NC(=O)c2ccc(NS(=O)(=O)C3CCC3)cc2N2CCC3(CC2)CC3)nc(N2CC(F)(F)C2)n1 [Example 6-13]               52
1  Cc1cc(NC(=O)c2ccc(NS(=O)(=O)CC3CC3)cc2N2CCC3(CC2)CC3)nc(N2CC(F)(F)C2)n1 [Example 11-78]              125
2  Cc1cc(NC(=O)c2ccc(NS(=O)(=O)C3(C)CC3)cc2N2CCC3(CC2)CC3)nc(N2CC(F)(F)C2)n1 [Example 11-74]               94
3  Cc1cc(NC(=O)c2ccc(NS(=O)(=O)CCO)cc2N2CCC3(CC2)CC3)nc(N2[C@H](C)COC[C@@H]2C)n1 [Example 11-48]               95

Given the compound Cc1cc(NC(=O)c2ccc(NS(=O)(=O)CCO)cc2N2CCC3(CC2)CC3)nc(N2[C@@H](C)COC[C@@H]2C)n1 [Example 11-49] , what is its reported IC50?
245

And then Cc1cc(NC(=O)c2ccc(NS(=O)(=O)C[C@@H](C)O)cc2N2CCC3(CC2)CC3)nc(OCCC(F)(F)F)n1 [Example 6-28-1] , what is it?
68

And then Cc1cc(NC(=O)c2ccc(NS(=O)(=O)C3CC3)cc2N2CCC3(CC2)CC3)nc(N2CCC(F)(F)CC2)n1 [Example 6-16] , what is it?
52

---

- System: Recombinant human KIF18A (1-467 His-tagged) protein (Homo sapiens (Human), UniProt Q8NI77)
- Assay: KIF18A Enzyme Assay: microtubule-stimulated ATPase activity (ADP-Glo)
- Condition Summary: read-out: KIF18A ATPase IC50; 30 nM KIF18A, 30 μg/mL pig microtubules, ATP at Km 75 μM, ADP-Glo luminescence
Quantity Measured: pIC50
Remember, pIC50 is on a log scale: it is -log10 of the molar concentration.

>>> df
                                   molecule  measured_result
0  Cc1cc(NC(=O)c2ccc(NS(=O)(=O)C3(CO)CC3)cc2N2CCC3(CC2)CC3)nc(N2CCC(F)(F)CC2)n1 [Example 11-69]             7.00
1  Cc1cc(NC(=O)c2ccc(S(=N)(=O)C(C)C)cc2N2CCC3(CC2)CC3)nc(N2CCC(F)(F)CC2)n1 (stereo not drawn) [Example 19-5]             6.76
2  O=C(Nc1ccnc(N2CCC(F)CC2)n1)c1ccc(NS(=O)(=O)CCO)cc1N1CCC2(CC1)CC2 [Example 11-56]             7.66
3  Cc1cc(NC(=O)c2ccc(S(C)(=O)=O)cc2N2CCC3(CC2)CC3)nc(N2CCC(F)(F)CC2)n1 [Example 2-6]             6.59
4  Cc1cc(NC(=O)c2ccc(NS(=O)(=O)CF)cc2N2CCC3(CC2)CC3)nc(N2CCC(F)CC2)n1 [Example 6-1]             7.21
5  Cc1cc(NC(=O)c2ccc(S(=O)(=O)C3CN(C)C3)cc2N2CCC3(CC2)CC3)nc(N2CCC(F)(F)CC2)n1 [Example 22]             6.39
6  Cc1cc(NC(=O)c2ccc(NS(=O)(=O)C3(C)CC3)cc2N2CCC3(CC2)CC3)nc(N2CCC(F)(F)CC2)n1 [Example 2-8]             6.15
7  Cc1cc(NC(=O)c2ccc(NS(=O)(=O)CCO)cc2N2CCC3(CC2)CC3)nc(N2CCC(F)CC2)n1 [Example 11-51]             7.70

Given the molecule Cc1cc(NC(=O)c2ccc(NS(=O)(=O)[C@H]3CCOC3)cc2N2CCC3(CC2)CC3)nc(N2CC(F)(F)C2)n1 [Example 11-70] , what is its reported pIC50?
7.14

And then Cc1cc(NC(=O)c2ccc(NS(=O)(=O)CCO)cc2N2CCC3(CC2)CC3)nc(N2CCCC(F)(F)C2)n1 [Example 11-39] , what is it?
7.35

And then Cc1cc(NC(=O)c2ccc(NS(=O)(=O)CCO)cc2N2CCC3(CC2)CC3)nc(N2CC[C@H]3C[C@H]3C2)n1 [Example 11-43] , what is it?
7.46

And then Cc1cc(NC(=O)c2ccc(S(=O)(=O)C3COC3)cc2N2CCC3(CC2)CC3)nc(N2CCC(F)(F)CC2)n1 [Example 14-1] , what is it?
6.74

And then Cc1cc(NC(=O)c2ccc(NS(=O)(=O)C3(CO)CC3)cc2N2CCC3(CC2)CC3)nc(N2CC(F)(F)C2)n1 [Example 11-68] , what is it?
7.28

And then CCS(=O)(=O)Nc1ccc(C(=O)Nc2cc(C)nc(N3CCC(F)CC3)n2)c(N2CCC3(CC2)CC3)c1 [Example 11-82] , what is it?
7.29

And then Cc1cc(NC(=O)c2ccc(NS(=O)(=O)CCO)cc2N2CCC3(CC2)CC3)nc(N2CC(O)(C(F)(F)F)C2)n1 [Example 11-18] , what is it?
7.19
